Catalogue of protein stability index readings, one per entry.
# method_description: protein stability index of a GFP-peptide fusion (yeast GPS) (PSI 1-4); higher = more stable; sorted into four equal gates, so the index is relative within each strain
# details: ubr1∆
Reply with just the number.

Consider the following illustrative entries.
sequence: LLQLIQSQPQEKFSEKM [ECM29]
protein stability index: 2.47

sequence: TIELAGGGYFSAAGMTA [FAS1]
protein stability index: 2.84

sequence: PNNASSHISASASPHLA [SNF2]
protein stability index: 2.88

sequence: IKIVYALTTIKGVGRRY [RPS18A]
protein stability index: 1.61

sequence: KLKQGQKLFVQVSNFAP [GAL11]
protein stability index: 2.84

Asked: Give protein stability index for the following sequence: TYLTQEILILINDPTNK [SIN4]
Given back: 1.26

Asked: Give protein stability index for the following sequence: SAKPTFSFSKSEEERKS [YOR098C/NUP1]
Given back: 2.79

Asked: Give protein stability index for the following sequence: NTSESLLVDIQKYNQIQ [SMC2]
Given back: 1.68

Sourced from the supplement of paper PMC9732359
